# study.target: T1, NPB1 (influenza B virus B/Houston/B720/2004, UniProt O36433 1-548)
# T1 chain: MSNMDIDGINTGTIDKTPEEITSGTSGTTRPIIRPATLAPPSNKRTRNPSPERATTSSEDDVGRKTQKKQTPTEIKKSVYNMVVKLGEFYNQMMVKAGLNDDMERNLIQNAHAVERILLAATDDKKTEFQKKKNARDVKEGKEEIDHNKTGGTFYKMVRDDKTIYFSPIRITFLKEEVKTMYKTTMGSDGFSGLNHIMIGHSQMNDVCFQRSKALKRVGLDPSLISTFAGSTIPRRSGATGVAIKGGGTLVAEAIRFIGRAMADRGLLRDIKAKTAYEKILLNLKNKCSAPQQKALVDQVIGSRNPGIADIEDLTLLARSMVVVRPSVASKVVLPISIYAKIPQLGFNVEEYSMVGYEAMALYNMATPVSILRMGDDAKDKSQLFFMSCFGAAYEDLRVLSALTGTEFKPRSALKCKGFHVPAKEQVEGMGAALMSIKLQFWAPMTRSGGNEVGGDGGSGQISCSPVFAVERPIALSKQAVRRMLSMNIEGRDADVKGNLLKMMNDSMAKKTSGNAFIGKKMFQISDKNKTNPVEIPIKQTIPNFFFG
# assay.info: ELISA on recombinant NP
Here the recorded EC50 is given for each entry.
Your answer is read as nM, so omit the unit and give the number.

* NP20 (antibody, V domains shown) VH: EVQLVESGGGLVQPGGSLRLSCAASGFTINGYSIHWVRQAPGKGLEWVASIGPYGGFTYYADSVKGRFTISADTSKNTAYLQMNSLRAEDTAVYYCAGFGFYYWGQGTLVTVSS VL: DIQMTQSPSSLSASVGDRVTITCRASQDVGYGVAWYQQKPGKAPKLLISGASGLYSGVPSRFSGSGSGTDFTLTISSLQPEDFATYYCQQYSSFPLTFGQGTKVEIKR | 0.04
* NP24 (antibody, V domains shown) VH: EVQLVESGGGLVQPGGSLRLSCAASGFTIDDWYIHWVRQAPGKGLEWVAGIGPYGGFTYYADSVKGRFTISADTSKNTAYLQMNSLRAEDTAVYYCARGYYGSFDYWGQGTLVTVSS VL: DIQMTQSPSSLSASVGDRVTITCRASQDVGSSVAWYQQKPGKAPKLLIFYTSSLYSGVPSRFSGSGSGTDFTLTISSLQPEDFATYYCQQGWDSPVTFGQGTKVEIKR | 0.05

Ask | Provide EC50 value for the following binder: NP2 (antibody, V domains shown) VH: EVQLVESGGGLVQPGGSLRLSCAASGFTIGGGGIHWVRQAPGKGLEWVAGIWPYWGYTFYADSVKGRFTISADTSKNTAYLQMNSLRAEDTAVYYCARFWHGNLDVMDYWGQGTLVTVSS VL: DIQMTQSPSSLSASVGDRVTITCRASQDVYGYVAWYQQKPGKAPKLLIYGAAGLYSGVPSRFSGSGSGTDFTLTISSLQPEDFATYYCQQYSNFPLTFGQGTKVEIKR
Reply | 1.37

Ask | Provide EC50 value for the following binder: NP23 (antibody, V domains shown) VH: EVQLVESGGGLVQPGGSLRLSCAASGFTISNYFIHWVRQAPGKGLEWVASIGPFGGFTSYADSVKGRFTISADTSKNTAYLQMNSLRAEDTAVYYCAGYGFHYWGQGTLVTVSS VL: DIQMTQSPSSLSASVGDRVTITCRASQDVDDGVAWYQQKPGKAPKLLISGARWLYSGVPSRFSGSGSGTDFTLTISSLQPEDFATYYCQQYYNFPLTFGQGTKVEIKR
Reply | 0.06

Ask | Provide EC50 value for the following binder: NP22 (antibody, V domains shown) VH: EVQLVESGGGLVQPGGSLRLSCAASGFTISDWSIHWVRQAPGKGLEWVAGIWPYWGSTSYADSVKGRFTISADTSKNTAYLQMNSLRAEDTAVYYCARGFYSWFDYWGQGTLVTVSS VL: DIQMTQSPSSLSASVGDRVTITCRASQDVFSWVAWYQQKPGKAPKLLISSASSLYSGVPSRFSGSGSGTDFTLTISSLQPEDFATYYCQQSWDYPITFGQGTKVEIKR
Reply | 0.27

Ask | Provide EC50 value for the following binder: NP25 (antibody, V domains shown) VH: EVQLVESGGGLVQPGGSLRLSCAASGFTIGGGFIHWVRQAPGKGLEWVASIWPYWGFTYYADSVKGRFTISADTSKNTAYLQMNSLRAEDTAVYYCARGSYGYSDYWGQGTLVTVSS VL: DIQMTQSPSSLSASVGDRVTITCRAGQDVSSGVAWYQQKPGKAPKLLISWTSFLYSGVPSRFSGSGSGTDFTLTISSLQPEDFATYYCQQYYDYPITFGQGTKVEIKR
Reply | 0.1
